- SYSTEM TESTED: hSTING (Homo sapiens, UniProt Q86WV6, G230A/H232R/R293Q/R71H)
- Sequence (Q86WV6 whole entry R71H/G230A/H232R/R293Q): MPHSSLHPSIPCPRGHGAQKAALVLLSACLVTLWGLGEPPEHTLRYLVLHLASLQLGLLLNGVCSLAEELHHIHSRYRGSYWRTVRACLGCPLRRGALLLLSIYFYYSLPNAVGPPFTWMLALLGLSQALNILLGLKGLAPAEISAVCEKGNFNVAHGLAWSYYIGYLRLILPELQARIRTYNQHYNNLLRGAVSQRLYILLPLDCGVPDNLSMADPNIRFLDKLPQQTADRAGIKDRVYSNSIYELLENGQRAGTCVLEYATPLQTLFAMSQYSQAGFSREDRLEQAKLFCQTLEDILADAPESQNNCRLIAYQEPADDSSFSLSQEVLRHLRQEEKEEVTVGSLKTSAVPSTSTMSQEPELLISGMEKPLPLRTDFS
- ASSAY PROCEDURE: STING reporter assay (luciferase) in THP1-Dual KO-IFNAR2 cells stimulated with 2'3'cGAMP
- SETUP CONDITIONS: 2'3'cGAMP 15 μM, 24 h, luciferase reporter activity
QUANTITY: EC50

The cases that follow already have their EC50 on record.
>>> reported_measurement("O=C(Nc1cnc(N2CCC(F)(F)CC2)c(F)c1)Nc1c[nH]c2ccc(Cl)cc12")
"40 to 200 nM"
>>> reported_measurement("O=C(Nc1cnc(N2CCC(F)(F)CC2)nc1)Nc1c[nH]c2cc(F)c(F)cc12")
"200 to 1000 nM"
>>> reported_measurement("CC1(C)CN(c2ncc(NC(=O)Nc3c[nH]c4cc(F)c(F)cc34)cc2F)CCO1")
"40 to 200 nM"
>>> reported_measurement("C[C@@H]1CN(c2ncc(NC(=O)Nc3c[nH]c4ccc(Cl)cc34)cc2Cl)C[C@@H](C)N1")
"1000 to 5000 nM"
>>> reported_measurement("C[C@H]1CN(c2ncc(NC(=O)Nc3c[nH]c4cc(F)c(F)cc34)cc2Cl)CCO1")
"200 to 1000 nM"
>>> reported_measurement("Cc1cc(NC(=O)Nc2c[nH]c3ccccc23)cnc1N1CCC(F)(F)CC1")
"200 to 1000 nM"
>>> reported_measurement("O=C(Nc1ccc(C2CCC(F)(F)CC2)nc1)Nc1c[nH]c2ccc(Cl)cc12")
"40 to 200 nM"
>>> reported_measurement("Cc1cc(NC(=O)Nc2c[nH]c3cc(F)c(F)cc23)cnc1N1CC2(C1)CC(F)(F)C2")
"200 to 1000 nM"

[in] Give EC50 only, for `COCCO[C@@H]1CCN(c2ncc(NC(=O)Nc3c[nH]c4cc(F)c(F)cc34)cc2Cl)C1` , using hSTING (Homo sapiens, UniProt Q86WV6, G230A/H232R/R293Q/R71H) data.
[out] 200 to 1000 nM

[in] Recall the reported EC50 of `O=C(Nc1cnc(N2CC3CCC(C2)O3)c(Cl)c1)Nc1c[nH]c2ccc(Cl)cc12` on hSTING (Homo sapiens, UniProt Q86WV6, G230A/H232R/R293Q/R71H) and write it down.
[out] 40 to 200 nM

[in] Output reported EC50 of the compound `O=C(Nc1cnn(C2CCC(F)(F)CC2)c1)Nc1c[nH]c2cc(F)c(Cl)cc12` on hSTING (Homo sapiens, UniProt Q86WV6, G230A/H232R/R293Q/R71H).
[out] 200 to 1000 nM

[in] Please report EC50 with hSTING (Homo sapiens, UniProt Q86WV6, G230A/H232R/R293Q/R71H) for item `O=C(Nc1cnc(N2CCC3(CCCCO3)CC2)c(Cl)c1)Nc1c[nH]c2ccccc12` .
[out] 40 to 200 nM

[in] Given `O=C(Nc1cnc(N2CCC(F)(F)CC2)c(CCO)c1)Nc1c[nH]c2cc(F)c(F)cc12` , report its EC50 on hSTING (Homo sapiens, UniProt Q86WV6, G230A/H232R/R293Q/R71H).
[out] 200 to 1000 nM

[in] Output reported EC50 of the compound `O=C(Nc1cnc(N2CCN(CCC(F)(F)F)CC2)c(Cl)c1)Nc1c[nH]c2ccc(F)cc12` on hSTING (Homo sapiens, UniProt Q86WV6, G230A/H232R/R293Q/R71H).
[out] 40 to 200 nM

* * *

- SYSTEM TESTED: hSTING (Homo sapiens, UniProt Q86WV6, G230A/H232R/R293Q/R71H)
- ASSAY PROCEDURE: STING reporter assay (luciferase) in THP1-Dual KO-IFNAR2 cells stimulated with 2'3'cGAMP
- SETUP CONDITIONS: 2'3'cGAMP 15 μM, 24 h, luciferase reporter activity
pEC50: −log10 of the molar value.
Listing of entries alongside the reported pEC50.

# annotated cases, reported pEC50 shown
>>> reported_measurement("O=C(Nc1cnn(C2CC(F)(F)C2)c1)Nc1c[nH]c2cc(F)c(F)cc12 [Compound 216]")
"5.30 to 6.00"
>>> reported_measurement("Cc1cc(NC(=O)Nc2c[nH]c3ccc(CCO)cc23)cnc1N1CCC(F)(F)CC1 [Compound 164]")
"5.30 to 6.00"
>>> reported_measurement("O=C(Nc1ccc(N2CCN(CCC(F)(F)F)CC2)nc1)Nc1c[nH]c2ccc(F)cc12 [Compound 252]")
"6.00 to 6.70"
>>> reported_measurement("O=C(Nc1cnc(N2CCC3(CC2)CC3)c(Cl)c1)Nc1c[nH]c2cc(F)c(F)cc12 [Compound 241]")
"6.70 to 7.40"
>>> reported_measurement("O=C(Nc1cnc(N2CCN(CC(F)(F)F)CC2)c(Cl)c1)Nc1c[nH]c2cc(F)c(F)cc12 [Compound 269]")
"6.70 to 7.40"
>>> reported_measurement("CC1(C)CN(c2ncc(NC(=O)Nc3c[nH]c4ccc(Cl)cc34)cc2Cl)CCO1 [Compound 298]")
"6.70 to 7.40"
>>> reported_measurement("O=C(Nc1cnc(C2CCN(CC(F)(F)F)CC2)c(F)c1)Nc1c[nH]c2ccc(F)cc12 [Compound 270]")
"6.70 to 7.40"
>>> reported_measurement("O=C(Nc1cnc(C2CCC(F)(F)CC2)c(CO)c1)Nc1c[nH]c2ccc(Cl)cc12 [Compound 136]")
"6.00 to 6.70"
>>> reported_measurement("COc1cc(NC(=O)Nc2c[nH]c3cc(F)c(F)cc23)cnc1N1CC(F)(F)C1 [Compound 168]")
"6.00 to 6.70"
>>> reported_measurement("O=C(Nc1cnc(C2CCC(F)(F)CC2)c(Cl)c1)Nc1c[nH]c2cc(F)ccc12 [Compound 141]")
"6.00 to 6.70"

For the next question, use this molecule.
[in] Look up and report measured pEC50 for this entry: O=C(Nc1cnc(N2CCN(CCC(F)(F)F)CC2)c(Cl)c1)Nc1c[nH]c2ccc(Cl)cc12 [Compound 124]
[out] 6.70 to 7.40
